This section presents sequences with their documented self-splicing fitness (ln) values.
# Experimental details: self-splicing fitness, log relative to wild type (ln ratio); higher = more splicing; Tetrahymena group I intron in knt gene, E. coli kanamycin selection, DiMSum; sequences stand for … in CUCUCU…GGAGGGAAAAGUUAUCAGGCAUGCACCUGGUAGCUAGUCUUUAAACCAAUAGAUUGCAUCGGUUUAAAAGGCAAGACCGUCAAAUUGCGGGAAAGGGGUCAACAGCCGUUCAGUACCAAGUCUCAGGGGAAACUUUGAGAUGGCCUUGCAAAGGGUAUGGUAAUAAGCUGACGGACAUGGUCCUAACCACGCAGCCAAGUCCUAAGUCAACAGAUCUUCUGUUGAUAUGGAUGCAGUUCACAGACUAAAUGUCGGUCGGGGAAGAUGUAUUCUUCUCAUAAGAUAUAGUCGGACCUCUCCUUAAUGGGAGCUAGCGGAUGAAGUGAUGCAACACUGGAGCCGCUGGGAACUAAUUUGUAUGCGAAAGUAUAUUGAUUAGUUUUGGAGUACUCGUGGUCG;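 note: selection with 25 µg/mL kanamycin versus none on LB agar overnight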
# Condition description: 30 °C
Quantity kind: self-splicing fitness (ln)

# Query sequence, Quantity kind, Recorded result
records = [
    ("ACUAAGCAAUAUUACGCAUA", "self-splicing fitness (ln)", -1.9),
    ("GAGCAGCAAUAUUACGUCUU", "self-splicing fitness (ln)", -3.01),
    ("AAAAAGCAAUAUUACGCCCC", "self-splicing fitness (ln)", -0.356),
    ("GUUGAGCAAUAUUACGACAU", "self-splicing fitness (ln)", -0.358),
    ("GGUGAGCAAUAUUACGGUGC", "self-splicing fitness (ln)", -2.09),
    ("CACCAGCAAUAUUACGCAUU", "self-splicing fitness (ln)", -2.6),
    ("ACACAGCAAUAUUACGUCUA", "self-splicing fitness (ln)", -1.27),
    ("UUAUAGCAAUAUUACGUGCU", "self-splicing fitness (ln)", -2.75),
    ("ACCCAGCAAUAUUACGACCA", "self-splicing fitness (ln)", -0.474),
    ("CAUCAGCAAUAUUACGCGCC", "self-splicing fitness (ln)", -2.74),
    ("AUUUAGCAAUAUUACGCGAG", "self-splicing fitness (ln)", -2.19),
    ("UAGUAGCAAUAUUACGUUGG", "self-splicing fitness (ln)", -3.52),
    ("CGGGAGCAAUAUUACGUGGG", "self-splicing fitness (ln)", -2.97),
    ("AAAGAGCAAUAUUACGAUGG", "self-splicing fitness (ln)", -3.63),
    ("CAAGAGCAAUAUUACGCCAU", "self-splicing fitness (ln)", -3.2),
    ("GGGUAGCAAUAUUACGUUUG", "self-splicing fitness (ln)", -1.9),
]
